assay: Pharmacokinetics: plasma concentration after oral administration; type: in vivo, mouse; conditions: C57BL/6, mouse, plasma, po, 30 mg/kg, plasma, 30 mg/kg oral, 1.25 hr, individual mice; read-out: Conc. (µM) 1.25 hr

{"columns": ["Chemical String", "Unit Info", "concentration at 1.25 hr"],
 "data": [
  ["COc1ccc2c(C)c(C(=O)O)ccc2c1C1C2=C(CC(C)(C)CC2=O)OC2=C1C(=O)CC(C)(C)C2", "µM", 49.6]
]}

====

test: Tissue concentrations 75 min after oral administration; type: in vivo, mouse; conditions: C57BL/6, mouse, gastrocnemius muscle, po, 30 mg/kg, Gastro. muscle, 30 mg/kg oral, 75 min, individual mice; read-out: Conc. (µM) Gastro.
Experimental Endpoint: concentration at 75 min (µM)

{"columns": ["Chemical String", "Experimental Endpoint", "Unit Info", "Numeric Value"],
 "data": [
  ["COc1ccc2c(C)c(C(=O)O)ccc2c1C1C2=C(CC(C)(C)CC2=O)OC2=C1C(=O)CC(C)(C)C2", "concentration at 75 min", "µM", 8]
]}

====

assay: Pharmacokinetics: plasma concentration after oral administration; format: in vivo, mouse; conditions: C57BL/6, mouse, plasma, po, 1 mg/kg, plasma, 1 mg/kg oral, 0.5 hr, individual mice; read-out: Conc. (µM) 0.5 hr

{"columns": ["Chemical String", "Unit Info", "concentration at 0.5 hr"],
 "data": [
  ["COc1ccc2c(C)c(C(=O)O)ccc2c1C1C2=C(CC(C)(C)CC2=O)OC2=C1C(=O)CC(C)(C)C2", "µM", 0.6]
]}

====

experiment: Pharmacokinetics: plasma concentration after oral administration; format: in vivo, mouse; settings: C57BL/6, mouse, plasma, po, 10 mg/kg, plasma, 10 mg/kg oral, 4 hr, individual mice; read-out: Conc. (µM) 4 hr

{"columns": ["Chemical String", "concentration at 4 hr, µM"],
 "data": [
  ["COc1ccc2c(C)c(C(=O)O)ccc2c1C1C2=C(CC(C)(C)CC2=O)OC2=C1C(=O)CC(C)(C)C2", 1.2]
]}
